# SUBJECT_OF_TEST: STAT3 (Homo sapiens)
# Construct: plasmid pSTAT3-TA-luc), which contains a stably operating STAT3 promoter; endogenous in cells
# Sequence (P40763 whole entry): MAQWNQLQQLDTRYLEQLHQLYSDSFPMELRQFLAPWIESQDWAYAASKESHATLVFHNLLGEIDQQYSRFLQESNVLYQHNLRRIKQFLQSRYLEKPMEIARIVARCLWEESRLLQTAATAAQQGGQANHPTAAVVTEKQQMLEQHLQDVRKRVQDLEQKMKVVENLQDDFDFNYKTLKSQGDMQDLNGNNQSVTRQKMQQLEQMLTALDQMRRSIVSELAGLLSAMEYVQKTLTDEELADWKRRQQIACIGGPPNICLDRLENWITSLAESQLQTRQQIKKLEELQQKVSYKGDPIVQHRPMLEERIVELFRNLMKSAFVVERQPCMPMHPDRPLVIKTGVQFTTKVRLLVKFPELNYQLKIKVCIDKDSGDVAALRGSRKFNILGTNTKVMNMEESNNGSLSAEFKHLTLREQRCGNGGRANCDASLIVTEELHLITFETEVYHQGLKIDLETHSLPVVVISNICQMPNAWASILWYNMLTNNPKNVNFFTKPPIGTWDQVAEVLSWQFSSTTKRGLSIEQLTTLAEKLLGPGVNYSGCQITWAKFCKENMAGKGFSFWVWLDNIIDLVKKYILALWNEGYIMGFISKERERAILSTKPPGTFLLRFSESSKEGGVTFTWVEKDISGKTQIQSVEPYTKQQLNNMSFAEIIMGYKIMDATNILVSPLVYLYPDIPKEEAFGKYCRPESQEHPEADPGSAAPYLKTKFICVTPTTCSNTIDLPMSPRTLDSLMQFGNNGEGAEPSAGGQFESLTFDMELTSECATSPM
# TEST_DETAILS: STAT3 reporter gene assay (luciferase), LNCaP stable cell line (pSTAT3-TA-luc), IL-6 stimulation
# Format: cell-based
QUANTITY_NAME: IC50 (µM)

Guide cases for IC50, answers given:
CC(C)(c1cccc(Cn2ccnc2)c1)c1cc(Br)cc(NC(=O)c2cc3cc(NS(C)(=O)=O)ccc3s2)c1 = 0.66
CS(=O)(=O)Nc1cc2cc(C(=O)Nc3cc(Cl)cc(Oc4ccc(F)c(Cl)c4)c3)sc2cc1Cl = 0.021
CC(C)(c1cccc(F)c1)c1cc(Cl)cc(NC(=O)c2cc3cc(NS(C)(=O)=O)ccc3s2)c1 = 0.064
CS(=O)(=O)Nc1cc2cc(C(=O)Nc3cc(Cl)cc(OC4CCCCC4)c3)sc2cc1Cl = 0.11
CC(C)(c1ccc(F)cc1)c1cccc(NC(=O)c2cc3cc(OC(F)(F)F)ccc3[nH]2)c1 = 3.3
CC(C)Oc1cc(OC(F)(F)F)cc(C(C)(C)c2cc(Cl)cc(NC(=O)c3cc4cc(NS(=O)(=O)c5cnn(C)c5)ccc4s3)c2)c1 = 0.029

I: C#Cc1cccc(S(=O)(=O)c2cccc(NC(=O)c3cc4ccc(NS(C)(=O)=O)cc4[nH]3)c2)c1
II: C[S+]([O-])c1ccc(C(C)(C)c2cc(Cl)cc(NC(=O)c3cc4cc(NS(C)(=O)=O)ccc4s3)c2)cc1 (stereo not shown)
III: COCCS(=O)(=O)Nc1ccc2sc(C(=O)Nc3cc(Cl)cc(C(C)(C)c4cc(OC(C)C)cc(OC(F)(F)F)c4)c3)cc2c1
IV: CC(C)(c1ccc(Cl)cc1)c1cc(Cl)cc(NC(=O)c2cc3cc(NS(C)(=O)=O)c(Cl)cc3s2)c1
V: COc1ccc(-c2cc(NC(=O)c3cc4ccc(NS(C)(=O)=O)cc4[nH]3)cc(-c3ccc(F)cc3F)c2)cn1
Request: Order these by IC50, descending, and give the full ranking. Response format: the labels, sorted as the prompt asks.
Response: I, II, V, IV, III

A: CS(=O)(=O)Nc1ccc2cc(C(=O)Nc3cccc(-c4cnccc4C(F)(F)F)c3)[nH]c2c1
B: Cc1ccc(Oc2cc(Cl)cc(NC(=O)c3cc4cc(NS(C)(=O)=O)c(Cl)cc4s3)c2)s1
Request: Param pair: A , B . Output: the one whose IC50 is numerically greater. // caller expects the label of the chosen entry
Response: A

a: CS(=O)(=O)Nc1ccc2cc(C(=O)Nc3cccc(-c4cnc(Cl)cc4C(F)(F)F)c3)[nH]c2c1
b: COc1cc(NC(=O)c2cc3ccc(NS(C)(=O)=O)cc3[nH]2)cc(-c2ccc(F)cc2F)c1
Request: Param pair: a , b . Output: the one whose IC50 is numerically greater. // caller expects the label of the chosen entry
Response: b

P: CS(=O)(=O)Nc1ccc2cc(C(=O)Nc3cc(C(=O)N4CCCCC4)cc(-c4ccc(F)cc4F)c3)[nH]c2c1
Q: CS(=O)(=O)Nc1ccc2sc(C(=O)Nc3cc(Br)cc(C4(c5ccc(F)cc5F)CC4)c3)cc2c1
Request: When the recorded IC50 values are compared, which is smaller: that of P or that of Q ? // caller expects the label of the chosen entry
Response: Q
(Q: 0.082 µM, P: 6.2 µM)
